Settings: rat, in vivo, sc, 0.1 mg/kg
Procedure: Healthy Fisher 344 rats (3 animals per group) are injected with 100 μg compound/kg (compound amount based on peptide content and dissolved in PBS buffer). […] PK parameters are then calculated using a model-independent method (WinNonlin Pro, Pharsight Corp., Mountain View, Calif., USA).
Square brackets hold non-standard residues; d marks the D form. Ends that are not written are not given here. Nle = CCCC[C@H](N)C(=O)O; Aib = CC(C)(N)C(=O)O
Measurement label: Cl/F (L/h/kg)
Give bare numbers, in L/h/kg.

P255: cyclic PEGylated VPAC2 receptor peptide agonist (HSDAVFTENYTKL[Aib]KQ[Nle]AAKKYLNDLKQGGPSSGAPPPC; not fully specified (residue 39); ends and bridges not checked; also: cyclic, bridge type and places not given here, PEGylated, site not placed) [Agonist P255]    0.017
P257: cyclic PEGylated VPAC2 receptor peptide agonist (HSDAVFTENYTKL[Aib]KQ[Nle]AAKKYLNDLKKGGPSSGAPPPC; not fully specified (residue 39); ends and bridges not checked; also: cyclic, bridge type and places not given here, PEGylated, site not placed) [Agonist P257]    0.023
P348: cyclic PEGylated VPAC2 receptor peptide agonist (HSDAVFTENYTKLR[Aib]Q[Nle]AAKKYLNDLK[Aib]KGGPSSGAPPPC; not fully specified (residue 40); ends and bridges not checked; also: cyclic, bridge type and places not given here, PEGylated, site not placed) [Agonist P348]    0.09

Given P201: cyclic PEGylated VPAC2 receptor peptide agonist; P200 reacted with methoxy-PEG2-MAL-40K (HSDAVFTENYTKLRKQ[Nle]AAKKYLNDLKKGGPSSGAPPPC(methoxy‑PEG2‑MAL‑40K); ends and bridges not checked; also: cyclic, bridge kind and places not given here) [Agonist P201] , state its recorded Cl/F.
0.012
